experiment: Cytotoxicity against mouse NIH/3T3 cells after 24 hrs by MTT assay; details: nih3t3
propertyName: IC50 at 24 h (µM)

compound="COc1cc2c(cc1OC)C(=O)C(CC1CCN(Cc3ccccc3)CC1)C2 (stereo unspecified)" propertyname="IC50 at 24 h" quantitativeresult=316

* * *

assay: Cytotoxicity against mouse NIH/3T3 cells after 24 hrs by MTT assay; conditions: NIH/3T3 cells
propertyName: IC50 at 24 h (µM)

structuresmilesstring=COc1cc2nc(NC(=O)CN3CCN(CCCN(C)C)CC3)sc2cc1OC propertyname="IC50 at 24 h" valuerelationsign== quantitativeresult=100
structuresmilesstring=COc1cc2nc(NC(=O)CN3CCN(CCN(C)C)CC3)sc2cc1OC propertyname="IC50 at 24 h" valuerelationsign=> quantitativeresult=1000
